Experiment: Lipophilicity (log kw value) was determined
Type: physicochemical
Details: reversed-phase HPLC, methanol/buffer pH 7.4
OBSERVED PROPERTY: Log kw

MOLECULE | READOUT NUMBER
Cc1ccc(C(=O)O[C@H]2[C@H](C)Nc3ccccc3[C@@H]2N2CCCC2)cc1 | 5.47
CC1(C)Oc2ccc(C#N)cc2[C@H](NCc2ccccc2)[C@H]1O | 4.35
Cc1ccc(C(=O)N2c3ccccc3[C@H](NCc3ccccc3)[C@@H](O)[C@@H]2C)cc1 | 5.38

I: Cc1ccc(C(=O)N2c3ccccc3[C@H](N3CCCC3)[C@@H](O)[C@@H]2C)cc1
II: Cc1ccc(C(=O)N2c3ccccc3[C@H](N3CCN(Cc4ccccc4)CC3)[C@@H](O)[C@@H]2C)cc1
Identify the item whose Log kw is the smaller number: I or II Give the label of your selection.
I
